# assay.procedure: Antiproliferative activity against BAEC after 3 days by coulter counter analysis
# Format: functional
# condition.details: Bos taurus, 72 h
measure.name: IC50 (nM)
The response must be a number in nM with no trailing unit.

See these solved cases before continuing.
CCC(Nc1ccccc1C)=C1C(=O)CC(c2ccccc2)CC1=O (stereo unspecified)    2200
COc1cccc(C2CC(=O)C(=C(C)Nc3ccccc3OC)C(=O)C2)c1 (stereo unspecified)    230
CCC(Nc1ccccc1OC)=C1C(=O)CC(c2ccccc2)CC1=O (stereo unspecified)    1200

Provide measured IC50 value, entry: COc1ccccc1NC(C)=C1C(=O)CC(C2CCCCC2)CC1=O (stereo unspecified)
12000

Hello, please tell me recorded IC50 for this one: CC(Nc1ccccc1Cl)=C1C(=O)CC(c2ccccc2)CC1=O (stereo unspecified)
290
